- TARGET_OR_TEST_SYSTEM: Serine/threonine-protein kinase B-raf (Mus musculus, UniProt P28028, V600E)
- Sequence (P28028 whole entry, looked up, stated change not applied): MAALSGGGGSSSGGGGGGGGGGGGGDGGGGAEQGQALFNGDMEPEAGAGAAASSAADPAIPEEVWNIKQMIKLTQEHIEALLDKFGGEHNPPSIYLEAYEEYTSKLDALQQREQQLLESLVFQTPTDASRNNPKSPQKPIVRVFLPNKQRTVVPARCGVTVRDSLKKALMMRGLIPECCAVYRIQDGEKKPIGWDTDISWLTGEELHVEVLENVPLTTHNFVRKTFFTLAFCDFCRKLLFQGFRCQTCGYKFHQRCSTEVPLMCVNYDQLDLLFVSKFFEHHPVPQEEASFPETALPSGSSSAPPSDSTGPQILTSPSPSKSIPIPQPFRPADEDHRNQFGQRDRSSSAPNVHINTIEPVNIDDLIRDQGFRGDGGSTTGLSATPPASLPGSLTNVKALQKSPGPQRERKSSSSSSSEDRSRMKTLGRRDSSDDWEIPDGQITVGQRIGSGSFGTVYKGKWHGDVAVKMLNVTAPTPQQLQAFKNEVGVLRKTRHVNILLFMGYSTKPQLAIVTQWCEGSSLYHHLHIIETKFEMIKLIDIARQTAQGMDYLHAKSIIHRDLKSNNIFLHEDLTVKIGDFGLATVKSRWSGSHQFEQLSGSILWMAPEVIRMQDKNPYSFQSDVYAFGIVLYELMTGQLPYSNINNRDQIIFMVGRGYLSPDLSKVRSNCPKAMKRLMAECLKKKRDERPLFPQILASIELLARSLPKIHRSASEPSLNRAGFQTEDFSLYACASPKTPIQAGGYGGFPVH
- PROCEDURE_DETAILS: Inhibition of mouse full length GST-tagged BRAF V600E mutant using recombinant human full length N-terminal His-tagged MEK1 as substrate preincubated for 1 hr followed by substrate addition measured after 25 mins
pIC50: −log10 of the molar value.
ENDPOINT_NAME: pIC50

COMPOUND	ENDPOINT_NAME	TEST_VALUE
S=C(Nc1ccccc1)N1N=C(c2cccc(Cl)c2)CC1c1ccc2c(c1)OCCO2 (stereo not drawn)	pIC50	< 3.70
S=C(Nc1ccccc1)N1N=C(c2ccccc2Br)CC1c1ccc2c(c1)OCCO2 (stereo not drawn)	pIC50	< 3.70
S=C(Nc1ccccc1)N1N=C(c2ccc(Br)cc2)CC1c1ccc2c(c1)OCCO2 (stereo not drawn)	pIC50	7.30

The origin of these recorded values is ChEMBL document CHEMBL4270537.
